src = ChEMBL document CHEMBL4513216

Property: cytotoxicity at 10 µM; scope: individual compounds
assayText: Toxicity liver stage against HepG2, at 10uM
Assay type: cell-based
Parameters: test concentration 10 uM, cell line HepG2-A16-CD81EGFP
experimentalSetup: human, HepG2-A16-CD81EGFP cells; read-out: INHIBITION

compound	cytotoxicity at 10 µM [%]
Nc1cc(CCC2CN(Cc3ccc4cc[nH]c4c3)CCO2)ccn1 (stereo unspecified)	-10.6
CCn1ncc(CN(C)C(=O)c2ccn(C)n2)c1C	6.5
CC(C)(CNC(=O)NCCc1ccn(-c2ccccc2)n1)C(N)=O	-16.8
Cc1noc(C)c1CCC(=O)N1CCCC(n2cccn2)C1 (stereo unspecified)	-7.81
Cc1nc(CN2CC[C@H](OCC3CC3)[C@@H]2Cc2cccnc2)cs1	0.15
Nc1nc(CCC(=O)N2C[C@@H](CN3CCCC3)C[C@H](CO)C2)n[nH]1	-0.445
OCCN1CCC(c2csc(Nc3cnccn3)n2)CC1	-4.26
O=C(c1ccccn1)N1CCC(c2nc(O)cc(-c3ccncc3)n2)C1 (stereo unspecified)	-4.7
Cc1ccc(C2(O)CCN(C(=O)CCn3c(C)cccc3=O)CC2)nc1	-9.02
CN(Cc1ccncc1)C(=O)CCNS(=O)(=O)c1cccnc1	0.541
Cc1oncc1C(=O)N1CC[C@H]2[C@H](C[C@@H](CN(C)C)N2CC2CC2)C1	2.84

----------
assayText: Toxicity liver stage against HepG2, at 10uM
Format: cell-based
Parameters: test concentration 10 uM, cell line HepG2-A16-CD81EGFP
experimentalSetup: human, HepG2-A16-CD81EGFP cells; read-out: INHIBITION
Property: cytotoxicity at 10 µM; scope: individual compounds

compound	cytotoxicity at 10 µM [%]
Cc1nnc(SCc2cc(=O)n3c4c(sc3n2)CCCC4)[nH]1	-9.67
OC1(CNCc2noc(Cc3ccccc3)n2)CNCCOC1 (configuration not stated)	9.34
COc1ccccc1OCC(=O)N1CCC[C@]2(C[C@@H](OC)CO2)C1	1.04
c1ccc(OCCCNCCn2cccn2)cc1	-5.46
COc1ncccc1CN1CCn2c(C(=O)N3CCCC3)cnc2C1	8.28
Cc1ccc(CN2C[C@H]3CN(Cc4ccccc4Cl)CCN3C2=O)cc1	-10.3
O=C(c1cccnc1)N1CCC(c2nc(O)cc(-c3ccncc3)n2)C1 (configuration not stated)	-20.8
O=C(NCc1nnc2n1CCCC2)N1CCc2ccccc2C1	4.79
CC(c1ccccc1)n1cc2nc(N(C)C)[nH]cc-2c1=O (configuration not stated)	-25.5
Cc1nc(C)n(C2CCCN(C(=O)c3c[nH]c(C(C)C)n3)C2)n1 (configuration not stated)	-19.9
COC(=O)CCn1ccc(=O)c2ccccc21	-6.84
O=C(NCc1cc2n(n1)CCCNC2)c1cn2cc(Cl)ccc2n1	-10.1

----------
assayText: Toxicity liver stage against HepG2, at 10uM
Format: cell-based
Design: test concentration 10 uM, cell line HepG2-A16-CD81EGFP
experimentalSetup: human, HepG2-A16-CD81EGFP cells; read-out: INHIBITION
Property: cytotoxicity at 10 µM; scope: individual compounds

compound	cytotoxicity at 10 µM / %
CC(C)NC(=O)NC(C)c1ccc(-c2ccncc2)cc1 (centres undefined)	0.67
CC(C)c1nnsc1CN1CCc2[nH]nc(-c3ccc(Cl)cc3)c2C1	-10.3
Cc1nsc(NC(=O)N2CCCCC2CCCO)n1 (centres undefined)	-46.3
CC(C)C(=O)Nc1cc(C(=O)NC2CC(C)(C)NC(C)(C)C2)nn1C	-7.04
COc1cccc(Nc2nc(N3CCCC3)nc3c2CNCC3)c1	-6.41
Fc1cccc(C2CCCCN2Cc2nc(-c3cnccn3)no2)c1 (centres undefined)	-3.02
O=C(Cc1csc(N2CCNC2=O)n1)NC1(c2ccccc2)CCC1	-135
O=C(NCC1CC1)C1=NOC2(CCN(S(=O)(=O)Cc3ccccc3)C2)C1 (centres undefined)	-2.1
O=C(NCc1ccccc1CN1CCCCC1)Nc1nncs1	0.513
CC(C)COCC(NC(=O)Cc1ccn[nH]1)c1ccco1 (centres undefined)	-1.53
c1csc(CN2CCCC3(COCCN(c4cnccn4)C3)C2)c1 (centres undefined)	-68.7
CC1(C)CN(C(=O)c2occc2COc2cccc(C#N)c2)CCO1	8.18
CN(C)S(=O)(=O)N1C[C@H]2CCC[C@@]2(COc2cccnc2)C1	11.8
O=C(Cn1ccc2ccccc21)NCc1cc(N2CCOCC2)ncn1	4.44
Cc1cc(CNS(=O)(=O)CCCC#N)ccc1N(C)C	-5.18
CN(C)CCN1CCN(Cc2ccco2)Cc2cccnc21	1.73
Cc1ccc(CNC(=O)Cn2nc(-c3ccc(F)cc3)oc2=O)cc1F	-5.86
CC(CN1CCN(C)CC1)NC(=O)c1cc(Cl)c2c(c1)OCO2 (centres undefined)	-14
CC(Cn1cccn1)NCc1nc(-c2ccc3c(c2)OCO3)no1 (centres undefined)	-12.4
O=C(c1cc[nH]n1)N1CCN(C(c2ccccc2)C(F)(F)F)CC1 (centres undefined)	-6.36
CNc1[nH]nc(N)c1C(=O)Nc1ccc(OC)cc1	14.8
O=C([C@@H]1CCO[C@@H]2CCN(CC3CCOCC3)C[C@H]21)N1CCCO1	7.37
CCn1nc(C)cc1C(=O)N1C[C@@H]2C[C@@H](c3noc(C)n3)O[C@@H]2C1	8.06
Clc1cc(Cl)cc(OCCN2CCC(n3cncn3)CC2)c1	10.8

----------
Property: cytotoxicity at 10 µM; scope: individual compounds
assayText: Toxicity liver stage against HepG2, at 10uM
Assay type: cell-based
Set-up: test concentration 10 uM, cell line HepG2-A16-CD81EGFP
experimentalSetup: human, HepG2-A16-CD81EGFP cells; read-out: INHIBITION

compound	cytotoxicity at 10 µM / %
CC(=O)Nc1nccn1Cc1ccccc1Cl	-8.1
CN(Cc1nnc(C2CC2)n1C)C1CCN(CCS(C)(=O)=O)C1 (configuration not stated)	0.918
Cc1ccc(CNC(=O)CN(C)CC2CCN(CCO)CC2)s1	9.83
CCS(=O)(=O)CC(=O)Nc1cccc2c1CN(CC(C)C)C2	2.25
Cc1nc(CN(C)C2CCN(Cc3nc4ccccc4n3C)C2)no1 (configuration not stated)	-9.26
CCc1csc(C2CCCN(C(=O)CCn3cc(C)cn3)C2)n1 (configuration not stated)	1.82
Cc1nn(C)c(C)c1OCC(=O)NCC(O)c1ccsc1 (configuration not stated)	2.27
CCOc1c(Br)cc(/C=C/c2ncc(C(=O)O)s2)cc1OC	-1.26
COc1ccccc1OC1CN(C(=O)c2ccc(C(C)=O)s2)C1	2.01
Cn1cncc1CN1CCCC1c1cncc(Oc2ccc(F)cc2)n1 (configuration not stated)	-17.3
O=C1CC2(CCN(C(=O)c3ccncc3)CC2)Oc2c(Cl)cc(Cl)cc21	5.17
CC(Cn1cccn1)C(=O)N1CCC(Nc2cccnn2)CC1 (configuration not stated)	-9.28

----------
Property: cytotoxicity at 10 µM; scope: individual molecules
assayText: Toxicity liver stage against HepG2, at 10uM
Type: cell-based
Design: test concentration 10 uM, cell line HepG2-A16-CD81EGFP
experimentalSetup: human, HepG2-A16-CD81EGFP cells; read-out: INHIBITION
measureName: cytotoxicity at 10 µM (%)

molecule	observedMeasurement
CCN1CCc2c(cccc2NC(=O)CN(C)C2CCSC2)C1 (stereo unspecified)	-47
CCCC(N)CNS(=O)(=O)Cc1cccc(C#N)c1 (stereo unspecified)	6.13
O=C(c1cnnn1-c1ccccc1)N1CCCC(c2ccn[nH]2)C1 (stereo unspecified)	-2.75
CCNc1ncc(C(=O)N2CCC(c3ccccc3C(=O)O)C2)cn1 (stereo unspecified)	-6.41
CN(C)C(=O)[C@H]1C[C@H]2CN(C(=O)NCC3CCCCC3)C[C@@H]1O2	-0.572
Cc1ccc(C)c2c(C)c(C(=O)NCCCn3ccnn3)[nH]c12	-0.84
CC(C)=CCN(C)C1CCCN(Cc2noc(C)n2)C1 (stereo unspecified)	-19.6
N#Cc1cccnc1N1CCC(C2CCCCCN2C(=O)C2CC2)CC1 (stereo unspecified)	1.95
CCOCc1cnc2n1CCN(Cc1nc(C)cs1)C2C (stereo unspecified)	10.2
CC(C)Cc1cc(C(=O)N2CCC[C@H]2C(=O)N2CCOCC2)on1	6.07
CCC(C)NS(=O)(=O)c1ccc(C=Cc2onc(C)c2NC(C)=O)cc1 (stereo unspecified)	-10.7

----------
assayText: Toxicity liver stage against HepG2, at 10uM
Format: cell-based
Design: test concentration 10 uM, cell line HepG2-A16-CD81EGFP
experimentalSetup: human, HepG2-A16-CD81EGFP cells; read-out: INHIBITION

compound	cytotoxicity at 10 µM
Cc1cc(CNc2ccccc2Cl)no1	-7.77%
c1cc(CO[C@@H]2CN(Cc3ccoc3)[C@@H]3CCCO[C@@H]32)ccn1	-102%
Cc1nnc(NC(=O)N2CCN(Cc3ccc(F)cc3)C(=O)C2)s1	-0.392%
Cc1ccc(CN2CCOCC3(CCN(Cc4cccs4)C3)C2)o1 (stereo unspecified)	-5.61%
COCCNc1cc(C)nn2cnnc12	-1.63%
CCNC(=O)NC1CCC(Oc2ccccc2C#N)CC1 (stereo unspecified)	-9.08%
